proteins and their reported Km
- Substrate: CCCCC/C=C\C/C=C\C=C\[C@@H](C/C=C\CCCC(=O)O)OO
- EXPERIMENT NOTES: purified protein
- Assay type: biochemical, Capnella imbricata
- CONDITION PARAMETERS: 50 mM Tris pH 8.0, 100 mM NaCl, 1 mM CaCl2, 20 °C, 5–50 μM substrate
Numeric answer only, unit µM assumed.

Answered examples (3):
>>> observed_result("C. imbricata cHPL (catalase-related hydroperoxide lyase domain) (Capnella imbricata; S177L/Y176N) (protein, N-terminal cHPL domain of the HPL-LOX fusion protein, without the LOX domain; cHPL-His4 in pET11a; E. coli BL21(DE3), Ni-NTA; heme protein; monomer 45 kDa plus oligomers 440-670 kDa) MVWKNFGYEIFAEKFGKDELEKRIKDEHTAPPESPLFGSLKLKMKKEKFKILFTLRTTMEGFRRPTHTVATGGLGEITIVSDPKFPEHEFYRAGRKFPARLRHANLKLLDDAGSDARSFSIKFADNDSESPMDIVMNTGEANIFWNTSSFEDFVSSSAGESAAKEYVYKNPYYYYNLIEALRRAPETFAHLYYYSQLTMHFKAKDGKVRYCRYRAIPGDADIKEEEESGRLTEEEQRNVWIRSRHQNEKRPDDYLRKEYVERLGKGPVNYRLQIQIHEASPDDTATIFHAGIMWNKETHPWFDLAKVSIKTPLSPDVLERTSFNIVNQPESLGLLEAKSPEDYNSIGQIRVAVYKWIQHLRKLKVGSLVPTGQN")
3.9
>>> observed_result("C. imbricata cHPL (catalase-related hydroperoxide lyase domain) (Capnella imbricata; R56G) (protein, N-terminal cHPL domain of the HPL-LOX fusion protein, without the LOX domain; cHPL-His4 in pET11a; E. coli BL21(DE3), Ni-NTA; heme protein; monomer 45 kDa plus oligomers 440-670 kDa) MVWKNFGYEIFAEKFGKDELEKRIKDEHTAPPESPLFGSLKLKMKKEKFKILFTLGTTMEGFRRPTHTVATGGLGEITIVSDPKFPEHEFYRAGRKFPARLRHANLKLLDDAGSDARSFSIKFADNDSESPMDIVMNTGEANIFWNTSSFEDFVSSSAGESAAKEYVYKNPYYYYYSIEALRRAPETFAHLYYYSQLTMHFKAKDGKVRYCRYRAIPGDADIKEEEESGRLTEEEQRNVWIRSRHQNEKRPDDYLRKEYVERLGKGPVNYRLQIQIHEASPDDTATIFHAGIMWNKETHPWFDLAKVSIKTPLSPDVLERTSFNIVNQPESLGLLEAKSPEDYNSIGQIRVAVYKWIQHLRKLKVGSLVPTGQN")
19.0
>>> observed_result("C. imbricata cAOS (cAOS-H4 domain) (Capnella imbricata; L150F) (protein, N-terminal cAOS domain of the AOS-LOX fusion protein, without the LOX domain; cAOS-H4 (His4 tag) in pET11a; E. coli BL21(DE3), Ni-NTA; heme protein; monomer) MTWKNFGFDIFAERFGKDKLEKRIKDERTPPPDSPVFGGLTLRMKIEKFKTLFTLGTTLKGFRRATHTVGTGGIGEVTVVDDPKFPEHEFFKAGRKLPVRLRHANLKYPDDAGADARSFSIKFSDNDSESPLDIVMNTGEANIFWHTSSFEDFVPVKEGDSAKEYVYKNPYYYYNLVEALRRAPNTFAHLYYYSQVTMHFKAKDGKERYCRYRAIPGDVDIKEEEESGRLTEEEQRNIWTFSRYETEKRPDDYLRKEYVERLKKGPVNYRLQIQIHDVSPNDTATIFHAGILWDKETHPWFDLAKVSITTPMSPDVLERTNFNIVNQPKSLGLLDAKSPEDYNSIGQIRVSVYNWVQHLRKLKLGSLIPAGQN")
6.7

Given the protein C. imbricata cHPL (catalase-related hydroperoxide lyase domain) (Capnella imbricata; E60K/M59L) (protein, N-terminal cHPL domain of the HPL-LOX fusion protein, without the LOX domain; cHPL-His4 in pET11a; E. coli BL21(DE3), Ni-NTA; heme protein; monomer 45 kDa plus oligomers 440-670 kDa) MVWKNFGYEIFAEKFGKDELEKRIKDEHTAPPESPLFGSLKLKMKKEKFKILFTLRTTLKGFRRPTHTVATGGLGEITIVSDPKFPEHEFYRAGRKFPARLRHANLKLLDDAGSDARSFSIKFADNDSESPMDIVMNTGEANIFWNTSSFEDFVSSSAGESAAKEYVYKNPYYYYYSIEALRRAPETFAHLYYYSQLTMHFKAKDGKVRYCRYRAIPGDADIKEEEESGRLTEEEQRNVWIRSRHQNEKRPDDYLRKEYVERLGKGPVNYRLQIQIHEASPDDTATIFHAGIMWNKETHPWFDLAKVSIKTPLSPDVLERTSFNIVNQPESLGLLEAKSPEDYNSIGQIRVAVYKWIQHLRKLKVGSLVPTGQN , what is its reported Km?
7.3
